Molecular target: T1, Monomeric monkey CD48-mmH (monkey)
T1 construct: Soluble monkey CD48 with a myc-myc-hexa-histidine C-terminal tag; the whole entry is the construct; also called mfCD48-mmH
T1 chain: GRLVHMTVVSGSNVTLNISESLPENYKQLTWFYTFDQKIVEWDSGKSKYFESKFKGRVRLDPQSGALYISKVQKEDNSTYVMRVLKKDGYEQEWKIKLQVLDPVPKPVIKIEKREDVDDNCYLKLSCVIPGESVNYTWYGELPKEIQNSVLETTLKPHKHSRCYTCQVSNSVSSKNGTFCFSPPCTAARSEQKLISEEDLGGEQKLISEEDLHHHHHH
Assay: SPR (Biacore), antibody captured by anti-Fc, CD48 in solution, 25 C
Recorded endpoint: T½ (h)
Write it as a number; the unit h goes unstated.

# annotated cases, reported T½ shown
Binder: H4H1774P (antibody, human IgG4, V domains shown, Human IgG4 Fc (H4H)) VH: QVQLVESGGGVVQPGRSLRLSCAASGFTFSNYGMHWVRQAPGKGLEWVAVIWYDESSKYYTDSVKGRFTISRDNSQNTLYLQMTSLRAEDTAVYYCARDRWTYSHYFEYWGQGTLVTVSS VL: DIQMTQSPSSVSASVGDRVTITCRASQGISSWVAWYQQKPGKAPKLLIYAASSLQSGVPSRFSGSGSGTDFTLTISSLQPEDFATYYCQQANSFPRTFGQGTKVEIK
Result unit: h
T½: 2.52
//
Binder: H4H1707N (antibody, V domains shown, Human IgG4 Fc (H4H)) VH: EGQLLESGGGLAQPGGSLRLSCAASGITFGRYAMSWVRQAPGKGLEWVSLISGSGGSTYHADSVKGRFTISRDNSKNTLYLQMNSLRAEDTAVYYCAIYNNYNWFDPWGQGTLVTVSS VL: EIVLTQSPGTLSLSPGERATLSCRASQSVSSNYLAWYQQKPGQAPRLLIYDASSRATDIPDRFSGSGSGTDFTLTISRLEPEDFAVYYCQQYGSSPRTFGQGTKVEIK
Result unit: h
T½: 0.533
//
Binder: H4H1771P (antibody, human IgG4, V domains shown, Human IgG4 Fc (H4H)) VH: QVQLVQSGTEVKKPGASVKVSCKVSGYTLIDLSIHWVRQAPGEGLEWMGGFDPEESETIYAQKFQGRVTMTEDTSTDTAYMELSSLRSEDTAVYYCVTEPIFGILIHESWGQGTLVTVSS VL: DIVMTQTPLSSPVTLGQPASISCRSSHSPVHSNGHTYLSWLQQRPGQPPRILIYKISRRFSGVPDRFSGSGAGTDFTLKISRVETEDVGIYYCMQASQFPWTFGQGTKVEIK
Result unit: h
T½: 0.4
//
Binder: H4H1779P (antibody, human IgG4, V domains shown, Human IgG4 Fc (H4H)) VH: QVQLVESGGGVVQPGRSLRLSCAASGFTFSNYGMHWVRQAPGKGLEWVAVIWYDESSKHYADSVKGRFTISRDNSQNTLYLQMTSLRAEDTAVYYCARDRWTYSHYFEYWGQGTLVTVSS VL: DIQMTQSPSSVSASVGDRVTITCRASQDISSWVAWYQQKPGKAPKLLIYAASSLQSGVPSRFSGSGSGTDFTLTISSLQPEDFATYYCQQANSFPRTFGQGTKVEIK
Result unit: h
T½: 1.7

Turning now to a further record.
Recall and state the measured T½ for H4H1775P (antibody, human IgG4, V domains shown, Human IgG4 Fc (H4H)) VH: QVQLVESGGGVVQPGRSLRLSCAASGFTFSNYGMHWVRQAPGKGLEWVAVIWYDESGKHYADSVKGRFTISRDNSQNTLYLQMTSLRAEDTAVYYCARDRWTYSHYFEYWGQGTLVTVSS VL: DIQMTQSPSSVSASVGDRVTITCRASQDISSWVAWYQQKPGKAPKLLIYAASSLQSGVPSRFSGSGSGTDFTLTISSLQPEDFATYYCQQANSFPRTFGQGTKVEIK .
4.73
